# Tested on: T1, Human CD137 ECD (human)
# T1 construct: also called 4-1BB
# T1 sequence (chain, as listed by the source limits assumed): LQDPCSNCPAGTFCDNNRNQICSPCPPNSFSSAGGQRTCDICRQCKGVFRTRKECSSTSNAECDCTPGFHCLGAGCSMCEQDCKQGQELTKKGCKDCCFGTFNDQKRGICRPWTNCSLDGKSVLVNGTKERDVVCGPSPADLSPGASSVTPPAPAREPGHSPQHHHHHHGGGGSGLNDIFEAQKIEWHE
# Measurement description: single mutant vs template dBBDu183H
Observed property: fold change of affinity (fold)
Give the quantity in fold, number only.

# Binder, Recorded value
rows = [
    ("H183/L072 VH Y58K (antibody, name in Kabat numbering, V domains shown) VH: QVQLVESGGGLVQPGRSLRLSCAASGFTFSNAWMHWVRQAPGKGLEWVAQIKDKGNAYAAKYAPSVKGRFTISRDDSKNSIYLQMNSLKTEDTAVYYCHYVHYASASTVLPAFGVDAWGQGTTVTVSS VL: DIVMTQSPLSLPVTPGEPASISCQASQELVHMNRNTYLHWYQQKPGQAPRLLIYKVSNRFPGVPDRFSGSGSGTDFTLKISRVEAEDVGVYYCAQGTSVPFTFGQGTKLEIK", 0.3),
]

Query :: I have this binder here, H183/L072 VH A57T (antibody, name in Kabat numbering, V domains shown) VH: QVQLVESGGGLVQPGRSLRLSCAASGFTFSNAWMHWVRQAPGKGLEWVAQIKDKGNAYATYYAPSVKGRFTISRDDSKNSIYLQMNSLKTEDTAVYYCHYVHYASASTVLPAFGVDAWGQGTTVTVSS VL: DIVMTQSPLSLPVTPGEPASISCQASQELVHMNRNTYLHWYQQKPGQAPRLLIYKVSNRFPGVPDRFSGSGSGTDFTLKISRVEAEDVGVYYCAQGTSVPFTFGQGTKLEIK , and I need its recorded fold change of affinity.
Result :: 0.6

Query :: Thanks! And H183/L072 VH G65I (antibody, name in Kabat numbering, V domains shown) VH: QVQLVESGGGLVQPGRSLRLSCAASGFTFSNAWMHWVRQAPGKGLEWVAQIKDKGNAYAAYYAPSVKIRFTISRDDSKNSIYLQMNSLKTEDTAVYYCHYVHYASASTVLPAFGVDAWGQGTTVTVSS VL: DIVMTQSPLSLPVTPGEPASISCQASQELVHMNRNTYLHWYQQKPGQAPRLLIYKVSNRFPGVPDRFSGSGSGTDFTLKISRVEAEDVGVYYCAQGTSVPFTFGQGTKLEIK ?
Result :: 1.3

Query :: Thanks! And H183/L072 VH H93I (antibody, name in Kabat numbering, V domains shown) VH: QVQLVESGGGLVQPGRSLRLSCAASGFTFSNAWMHWVRQAPGKGLEWVAQIKDKGNAYAAYYAPSVKGRFTISRDDSKNSIYLQMNSLKTEDTAVYYCIYVHYASASTVLPAFGVDAWGQGTTVTVSS VL: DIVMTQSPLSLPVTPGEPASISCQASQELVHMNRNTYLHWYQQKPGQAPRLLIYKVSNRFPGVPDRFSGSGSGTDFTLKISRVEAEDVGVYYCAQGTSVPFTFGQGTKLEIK ?
Result :: 0

Query :: Thanks! And H183/L072 VH A54T (antibody, name in Kabat numbering, V domains shown) VH: QVQLVESGGGLVQPGRSLRLSCAASGFTFSNAWMHWVRQAPGKGLEWVAQIKDKGNTYAAYYAPSVKGRFTISRDDSKNSIYLQMNSLKTEDTAVYYCHYVHYASASTVLPAFGVDAWGQGTTVTVSS VL: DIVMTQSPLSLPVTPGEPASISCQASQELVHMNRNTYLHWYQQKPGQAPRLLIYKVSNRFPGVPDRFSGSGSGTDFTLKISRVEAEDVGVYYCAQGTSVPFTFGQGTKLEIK ?
Result :: 0.3
